System: Crofton weed
testProtocol: Needle puncture pathogenic test on slightly wounded leaf of Crofton weed
Type: in vivo
runParameters: Crofton weed leaf; 24 h; analogs with formula (I) and (II)
quantityKind: Avg. diameter of the spot after 24 h
Field note: include the unit after the figure.

// compound CCC1=C(O)C(C(C)CC)NC1=O (centres unmarked) [Compound 4] , assay Crofton weed, Avg. diameter of the spot after 24 h value: 2.97 ± 0.01 mm

// compound CCC(C)C1NC(=O)CC1=O (centres unmarked) [Compound 1] , assay Crofton weed, Avg. diameter of the spot after 24 h value: 1.97 ± 0.04 mm

// compound CCOC1=C(O)C(C(C)CC)NC1=O (centres unmarked) [Compound 5] , assay Crofton weed, Avg. diameter of the spot after 24 h value: 2.35 ± 0.14 mm

// compound CCC(=O)NC1=C(O)C(C(C)CC)NC1=O (centres unmarked) [Compound 9] , assay Crofton weed, Avg. diameter of the spot after 24 h value: 2.80 ± 0.33 mm

// compound CCC(C)C1NC(=O)C=C1O (centres unmarked) [Compound 3] , assay Crofton weed, Avg. diameter of the spot after 24 h value: 2.31 ± 0.09 mm

// compound CCCC(Cl)C1NC(=O)CC1=O (centres unmarked) [Compound 2] , assay Crofton weed, Avg. diameter of the spot after 24 h value: 2.96 ± 0.01 mm

// compound CCC(C)C1NC(=O)C(CCc2ccccc2)=C1O (centres unmarked) [Compound 6] , assay Crofton weed, Avg. diameter of the spot after 24 h value: 2.12 ± 0.08 mm

// compound CCC(C)C1NC(=O)C(NCCCCl)=C1O (centres unmarked) [Compound 8] , assay Crofton weed, Avg. diameter of the spot after 24 h value: 2.53 ± 0.18 mm

----------
System: Veronica percica
testProtocol: Leaf piece damage test
Assay type: in vivo
Parameters: key: 4: The leaf completely dead; 3: Two third of the leaf withered; 2: One half of the leaf withered; 1: Only edge of the leaf withered; 0: Not damage at all
runParameters: 50 μg/mL, 4 days
I'd appreciate it if you could supply Damage level values for the items below.
Just the number, please, no unit attached.

Damage level measured on CCCCCC1NC(=O)C(C(C)=O)=C1O (stereo not shown) [Compound 15] = 2

Damage level measured on CCCC(Cl)C1NC(=O)C(C(C)=O)=C1O (stereo not shown) [Compound 40] = 3

Damage level measured on CCCC(C#N)C1NC(=O)C(=C(C)O)C1=O (stereo not shown) [Compound 53] = 3

Damage level measured on CCC(C)C1NC(=O)C(C(=O)CCc2cc(Cl)cc(Cl)c2)=C1O (stereo not shown) [Compound 48] = 3

Damage level measured on CCC(C)C1NC(=O)C(C(=O)CCF)=C1O (stereo not shown) [Compound 44] = 3

Damage level measured on CCCCCCC1NC(=O)C(C(C)=O)=C1O (stereo not shown) [Compound 16] = 2

Damage level measured on CCCCC1NC(=O)C(C(C)=O)=C1O (stereo not shown) [Compound 14] = 2

----------
Test system: Perilla frutescens
testProtocol: Leaf piece damage test
Format: in vivo
Parameters: key: 4: The leaf completely dead; 3: Two third of the leaf withered; 2: One half of the leaf withered; 1: Only edge of the leaf withered; 0: Not damage at all
runParameters: 50 μg/mL, 4 days
I'd appreciate it if you could supply Damage level values for the items below.

Damage level measured on CCCC(Cl)C1NC(=O)C(C(C)=O)=C1O (stereo not shown) [Compound 40] = 2

Damage level measured on CCCCCCC1NC(=O)C(C(C)=O)=C1O (stereo not shown) [Compound 16] = 2

Damage level measured on CCCC(C#N)C1NC(=O)C(=C(C)O)C1=O (stereo not shown) [Compound 53] = 2

Damage level measured on CCCCC1NC(=O)C(C(C)=O)=C1O (stereo not shown) [Compound 14] = 2

Damage level measured on CCC(C)C1NC(=O)C(C(=O)CCc2cc(Cl)cc(Cl)c2)=C1O (stereo not shown) [Compound 48] = 2

Damage level measured on CCC(C)C1NC(=O)C(C(=O)CCF)=C1O (stereo not shown) [Compound 44] = 3

Damage level measured on CCCCCC1NC(=O)C(C(C)=O)=C1O (stereo not shown) [Compound 15] = 3

----------
System: Cayratia japonica
testProtocol: Leaf piece damage test
Type: in vivo
Parameters: key: 4: The leaf completely dead; 3: Two third of the leaf withered; 2: One half of the leaf withered; 1: Only edge of the leaf withered; 0: Not damage at all
runParameters: 50 μg/mL, 4 days
quantityKind: Damage level
Just the number, please, no unit attached.

Damage level measured on CCCC(C#N)C1NC(=O)C(=C(C)O)C1=O (stereo not shown) [Compound 53] = 3

Damage level measured on CCCC(Cl)C1NC(=O)C(C(C)=O)=C1O (stereo not shown) [Compound 40] = 2

Damage level measured on CCC(C)C1NC(=O)C(C(=O)CCF)=C1O (stereo not shown) [Compound 44] = 3

Damage level measured on CCCCCC1NC(=O)C(C(C)=O)=C1O (stereo not shown) [Compound 15] = 2

Damage level measured on CCC(C)C1NC(=O)C(C(=O)CCc2cc(Cl)cc(Cl)c2)=C1O (stereo not shown) [Compound 48] = 3

Damage level measured on CCCCCCC1NC(=O)C(C(C)=O)=C1O (stereo not shown) [Compound 16] = 2

Damage level measured on CCCCC1NC(=O)C(C(C)=O)=C1O (stereo not shown) [Compound 14] = 2

----------
System: Goose grass
testProtocol: Leaf piece damage test
Assay type: in vivo
Design: key: 4: The leaf completely dead; 3: Two third of the leaf withered; 2: One half of the leaf withered; 1: Only edge of the leaf withered; 0: Not damage at all
runParameters: 50 μg/mL, 4 days
quantityKind: Damage level
Just the number, please, no unit attached.

Damage level measured on CCCCC1NC(=O)C(C(C)=O)=C1O (stereo not shown) = 3

Damage level measured on CCCCCC1NC(=O)C(C(C)=O)=C1O (stereo not shown) = 3

Damage level measured on CCCC(Cl)C1NC(=O)C(C(C)=O)=C1O (stereo not shown) = 4

Damage level measured on CCCCCCC1NC(=O)C(C(C)=O)=C1O (stereo not shown) = 3

Damage level measured on CCC(C)C1NC(=O)C(C(=O)CCF)=C1O (stereo not shown) = 3

Damage level measured on CCCC(C#N)C1NC(=O)C(=C(C)O)C1=O (stereo not shown) = 4

Damage level measured on CCC(C)C1NC(=O)C(C(=O)CCc2cc(Cl)cc(Cl)c2)=C1O (stereo not shown) = 3

----------
Test system: Polygonum hydropiper
testProtocol: Leaf piece damage test
Type: in vivo
Parameters: key: 4: The leaf completely dead; 3: Two third of the leaf withered; 2: One half of the leaf withered; 1: Only edge of the leaf withered; 0: Not damage at all
runParameters: 50 μg/mL, 4 days
I'd appreciate it if you could supply Damage level values for the items below.
Just the number, please, no unit attached.

Damage level measured on CCC(C)C1NC(=O)C(C(=O)CCF)=C1O (stereo not shown) = 3

Damage level measured on CCCC(C#N)C1NC(=O)C(=C(C)O)C1=O (stereo not shown) = 3

Damage level measured on CCCCCCC1NC(=O)C(C(C)=O)=C1O (stereo not shown) = 3

Damage level measured on CCCCC1NC(=O)C(C(C)=O)=C1O (stereo not shown) = 2

Damage level measured on CCCCCC1NC(=O)C(C(C)=O)=C1O (stereo not shown) = 2

Damage level measured on CCCC(Cl)C1NC(=O)C(C(C)=O)=C1O (stereo not shown) = 2

Damage level measured on CCC(C)C1NC(=O)C(C(=O)CCc2cc(Cl)cc(Cl)c2)=C1O (stereo not shown) = 3

----------
I'd appreciate it if you could supply Damage level values for the items below.
System: Crofton weed
testProtocol: Spray on leaves and stems of three-leaf-stage Crofton weed seedlings grown in pots in a greenhouse
Assay type: in vivo
Parameters: key: 4: Plant completely dead; 3: Two thirds of the plant stems and leaves dried out; 2: Half of the plant stems and leaves dried out; 1: One third of the plant stems and leaves dried out; 0: No damage at all
runParameters: 50 μg/mL spray, assessed two days later
Just the number, please, no unit attached.

Damage level measured on CCC(C)C1NC(=O)C=C1O (stereo not shown) [Compound 3] = 1

Damage level measured on CCCC(Cl)C1NC(=O)CC1=O (stereo not shown) [Compound 2] = 2

Damage level measured on CCC(C)C1NC(=O)CC1=O (stereo not shown) [Compound 1] = 2

Damage level measured on CCCC(Cl)C1NC(=O)C(C(C)=O)=C1O (stereo not shown) [Compound 40] = 4

----------
System: Polygonum perfoliatum
testProtocol: Leaf piece damage test
Assay type: in vivo
Set-up: key: 4: The leaf completely dead; 3: Two third of the leaf withered; 2: One half of the leaf withered; 1: Only edge of the leaf withered; 0: Not damage at all
runParameters: 50 μg/mL, 4 days
quantityKind: Damage level

Damage level measured on CCCC(C#N)C1NC(=O)C(=C(C)O)C1=O (stereo not shown) [Compound 53] = 3

Damage level measured on CCC(C)C1NC(=O)C(C(=O)CCF)=C1O (stereo not shown) [Compound 44] = 3

Damage level measured on CCCC(Cl)C1NC(=O)C(C(C)=O)=C1O (stereo not shown) [Compound 40] = 3

Damage level measured on CCCCC1NC(=O)C(C(C)=O)=C1O (stereo not shown) [Compound 14] = 2

Damage level measured on CCC(C)C1NC(=O)C(C(=O)CCc2cc(Cl)cc(Cl)c2)=C1O (stereo not shown) [Compound 48] = 3

Damage level measured on CCCCCC1NC(=O)C(C(C)=O)=C1O (stereo not shown) [Compound 15] = 2

Damage level measured on CCCCCCC1NC(=O)C(C(C)=O)=C1O (stereo not shown) [Compound 16] = 3
